Recorded IC50 by entry
# assay_target: Alpha amylase (Homo sapiens)
# Sequence (P0DUB6 whole entry): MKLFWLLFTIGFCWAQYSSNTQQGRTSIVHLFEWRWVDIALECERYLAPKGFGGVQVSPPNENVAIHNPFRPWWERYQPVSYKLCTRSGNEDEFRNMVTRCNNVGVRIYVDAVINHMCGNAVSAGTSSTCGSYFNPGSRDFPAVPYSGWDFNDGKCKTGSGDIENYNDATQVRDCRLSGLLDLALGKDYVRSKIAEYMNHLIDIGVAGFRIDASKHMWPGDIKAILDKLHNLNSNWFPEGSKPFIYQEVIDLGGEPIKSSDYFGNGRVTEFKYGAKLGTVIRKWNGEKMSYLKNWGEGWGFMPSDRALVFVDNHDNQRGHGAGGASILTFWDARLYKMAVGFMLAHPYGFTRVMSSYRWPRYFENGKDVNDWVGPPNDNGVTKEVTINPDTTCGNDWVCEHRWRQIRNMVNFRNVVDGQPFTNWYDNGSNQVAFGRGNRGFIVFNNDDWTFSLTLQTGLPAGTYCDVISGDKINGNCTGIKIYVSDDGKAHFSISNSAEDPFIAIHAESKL
# assay_explanation: Inhibition of alpha-amylase (unknown origin)

# sample_smiles, assay_target, IC50 [µM]
measured = [
    ("O=C(Nc1sc2c(c1C(=O)NCc1ccccn1)CCCC2)c1cccnc1", "Alpha amylase (Homo sapiens)", 94.8),
    ("COc1cc(CNC(=O)c2c(NC(=O)c3cccnc3)sc3c2CCCC3)ccc1O", "Alpha amylase (Homo sapiens)", 72.9),
    ("COC(=O)c1ccc(CNC(=O)c2c(NC(=O)c3cccnc3)sc3c2CCCC3)cc1", "Alpha amylase (Homo sapiens)", 66.9),
    ("COc1ccc(CNC(=O)c2c(NC(=O)c3cccnc3)sc3c2CCCC3)cc1", "Alpha amylase (Homo sapiens)", 80.4),
    ("O=C(Nc1sc2c(c1C(=O)NCc1cccnc1)CCCC2)c1cccnc1", "Alpha amylase (Homo sapiens)", 48.1),
    ("O=C(Nc1sc2c(c1C(=O)NCc1ccccc1)CCCC2)c1cccnc1", "Alpha amylase (Homo sapiens)", 76.1),
]

###

# assay_target: Maltase-glucoamylase (Homo sapiens)
# assay_explanation: Inhibition of alpha-glucosidase (unknown origin) at 100 uM relative to control
Assign t to entries whose inhibition meets or exceeds 10%; assign f to the rest.

# sample_smiles, assay_target, assigned_category
records = [
    ("COC(=O)c1ccc(CNC(=O)c2c(NC(=O)c3cccnc3)sc3c2CCCC3)cc1", "Maltase-glucoamylase (Homo sapiens)", "t"),
    ("O=C(Nc1sc2c(c1C(=O)NCc1cccnc1)CCC2)c1cccnc1", "Maltase-glucoamylase (Homo sapiens)", "t"),
    ("O=C(Nc1sc2c(c1C(=O)NCc1cccnc1)CCCC2)c1cccnc1", "Maltase-glucoamylase (Homo sapiens)", "t"),
    ("O=C(Nc1sc2c(c1C(=O)NCc1ccccc1)CCCC2)c1cccnc1", "Maltase-glucoamylase (Homo sapiens)", "t"),
    ("O=C(Nc1sc2c(c1C(=O)NCc1ccncc1)CCC2)c1cccnc1", "Maltase-glucoamylase (Homo sapiens)", "f"),
]

###

// Ratio IC50 lookup, one value per entry
# Species: Homo sapiens
# assay_explanation: Selectivity ratio of IC50 for alpha-amylase (unknown origin) to IC50 for alpha-glucosidase (unknown origin)
readout_name: Ratio IC50

# sample_smiles, readout_number
rows = [
    ("O=C(Nc1sc2c(c1C(=O)NCc1ccccn1)CCCC2)c1cccnc1", 1.5),
    ("O=C(Nc1sc2c(c1C(=O)NCc1ccccc1)CCCC2)c1cccnc1", 1.7),
    ("COc1cc(CNC(=O)c2c(NC(=O)c3cccnc3)sc3c2CCCC3)ccc1O", 7.4),
    ("COc1ccc(CNC(=O)c2c(NC(=O)c3cccnc3)sc3c2CCCC3)cc1", 2.7),
    ("COC(=O)c1ccc(CNC(=O)c2c(NC(=O)c3cccnc3)sc3c2CCCC3)cc1", 0.8),
    ("O=C(Nc1sc2c(c1C(=O)NCc1cccnc1)CCCC2)c1cccnc1", 0.9),
]

###

# Test system: HepG2
# assay_explanation: Cytotoxicity against human HepG2 cells at 100 uM by MTT assay
# Assay type: toxicity, cell-based
# condition_details: hepg2, 100 µM
readout_name: Activity

# molecule, result
data = [
    ("COc1cc(CNC(=O)c2c(NC(=O)c3cccnc3)sc3c2CCC3)ccc1O", "Non-Toxic"),
    ("C[C@H]1O[C@H](O[C@H]2[C@H](O)[C@@H](O)[C@@H](O[C@H]3[C@H](O)[C@@H](O)C(O)O[C@@H]3CO)O[C@@H]2CO)[C@H](O)[C@@H](O)[C@@H]1N[C@H]1C=C(CO)[C@@H](O)[C@H](O)[C@H]1O (stereo partly drawn)", "Non-Toxic"),
    ("COC(=O)c1ccc(CNC(=O)c2c(NC(=O)c3cccnc3)sc3c2CCCC3)cc1", "Non-Toxic"),
]
